Test system: Cell line
Assay: Percentage of alpha-MSH stimulated cAMP level at 10 uM
Assay type: functional, Homo sapiens
Doc: threshold 40% (exclusive). Items with IA beneath it return Y; others return N.

A selection of reference data follows.
{"Molecule": "CC(NCc1ccco1)c1ccccc1N1CCN(C(=O)[C@@H](Cc2ccc(Cl)cc2)NC(=O)CCN)CC1 (some centres not stated)", "Category": "N"}
{"Molecule": "O=C(N[C@H](Cc1ccc(Cl)cc1)C(=O)N1CCN(c2ccccc2CNCCc2cccs2)CC1)C1CCN1 (some centres not stated)", "Category": "N"}
{"Molecule": "CC(NCCc1cccs1)c1ccccc1N1CCN(C(=O)[C@@H](Cc2ccc(Cl)cc2)NC(=O)CCN)CC1 (some centres not stated)", "Category": "Y"}
{"Molecule": "CC(c1ccccc1N1CCN(C(=O)[C@@H](Cc2ccc(Cl)cc2)NC(=O)CCN)CC1)N1CCN(C)CC1 (some centres not stated)", "Category": "N"}
{"Molecule": "O=C(N[C@H](Cc1ccc(Cl)cc1)C(=O)N1CCN(c2ccccc2CNCCc2cccs2)CC1)[C@H]1Cc2ccccc2CN1", "Category": "N"}

## Task IA strictly < 40% for this molecule? O=C(N[C@H](Cc1ccc(Cl)cc1)C(=O)N1CCN(c2ccccc2CNCCc2cccs2)CC1)c1cccnc1
## Result Y

## Task IA strictly < 40% for this molecule? CC(C)CC(N)C(=O)N[C@H](Cc1ccc(Cl)cc1)C(=O)N1CCN(c2ccccc2CNCCc2cccs2)CC1 (some centres not stated)
## Result N

## Task IA strictly < 40% for this molecule? O=C(N[C@H](Cc1ccc(Cl)cc1)C(=O)N1CCN(c2ccccc2CNCCc2cccs2)CC1)C1CCCCN1 (some centres not stated)
## Result N

## Task IA strictly < 40% for this molecule? CN(C)CC(=O)N[C@H](Cc1ccc(Cl)cc1)C(=O)N1CCN(c2ccccc2CNCCc2cccs2)CC1
## Result N
